- System: THRa:RXRa (NR concentration 90 nM, RXRa partner concentration 90 nM)
- Method: PBM binding z-score (relative to random genomic background probes); higher = stronger binding; sequences stand for … in GC…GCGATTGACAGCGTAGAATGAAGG
So basically: PBM binding z-score at 3 or higher? That is Criterion met. Lower than 3? That is Criterion not met.

1. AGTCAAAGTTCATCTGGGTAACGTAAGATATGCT :: Criterion not met
2. ATATGTAGGTTAGCTGGAGTCATTCAGACTAGGC :: Criterion not met
3. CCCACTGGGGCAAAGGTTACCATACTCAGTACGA :: Criterion not met

*Q* Determine whether this sequence has PBM binding z-score no lower than 3: "TTACCAAGGTGAAAGGTCGTTGAGGCACGCCTTG"
*A* Criterion met

*Q* Determine whether this sequence has PBM binding z-score no lower than 3: "CGAACTAGTTCAAAGGACAGTGAAAGGCGACGTA"
*A* Criterion not met

*Q* Determine whether this sequence has PBM binding z-score no lower than 3: "ATATGTAGGTTAAGGTCATTCAGAAAGTAGGGAA"
*A* Criterion met

*Q* Determine whether this sequence has PBM binding z-score no lower than 3: "CGAACTAGGTCACCAGGACAGTGGAGAGGTTGGA"
*A* Criterion met

*Q* Determine whether this sequence has PBM binding z-score no lower than 3: "TCGAGTATGTTACGGGGGCATTCAGGGATGAAGA"
*A* Criterion met

*Q* Determine whether this sequence has PBM binding z-score no lower than 3: "CGAACTAGGTCAAAGCACAGTGAAAGGCGACGTA"
*A* Criterion not met

*Q* Determine whether this sequence has PBM binding z-score no lower than 3: "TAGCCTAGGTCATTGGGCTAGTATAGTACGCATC"
*A* Criterion not met

*Q* Determine whether this sequence has PBM binding z-score no lower than 3: "CCTTACGGGTAACTCCAGGTTATAGCATCGGAGT"
*A* Criterion met

*Q* Determine whether this sequence has PBM binding z-score no lower than 3: "CGTCCAACGTCAGCAGGTCAGTGAAAGCGACGTG"
*A* Criterion not met

*Q* Determine whether this sequence has PBM binding z-score no lower than 3: "CGAACTAGGTCACCTGGACAGTGAAGAGGTTGGA"
*A* Criterion met

*Q* Determine whether this sequence has PBM binding z-score no lower than 3: "CGAACTAGGTCAAATGACAGTGAAAGGCGACGTA"
*A* Criterion not met

*Q* Determine whether this sequence has PBM binding z-score no lower than 3: "CCGAGTGGGTTACGAGGGGGCATTCAGTGCGAAT"
*A* Criterion met

*Q* Determine whether this sequence has PBM binding z-score no lower than 3: "CGTCCAAGGTCAAGGGCAGTGAAAGAGACTCGAA"
*A* Criterion met

*Q* Determine whether this sequence has PBM binding z-score no lower than 3: "AATACAGGGTCACTGGGCCAGAGTAGGTACGAAT"
*A* Criterion met

*Q* Determine whether this sequence has PBM binding z-score no lower than 3: "GCTGCTAGGTCAACTGATGGTCAGCTAGAGCTCG"
*A* Criterion met

*Q* Determine whether this sequence has PBM binding z-score no lower than 3: "TCGAGTAAGTTACGGGGGCATTCAGGGATGAAGA"
*A* Criterion met

*Q* Determine whether this sequence has PBM binding z-score no lower than 3: "TATACAGGATCAAAGGCCAGAGTACGAATGTCGA"
*A* Criterion not met

*Q* Determine whether this sequence has PBM binding z-score no lower than 3: "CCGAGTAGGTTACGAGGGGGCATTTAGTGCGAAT"
*A* Criterion met

*Q* Determine whether this sequence has PBM binding z-score no lower than 3: "CGTCCAAGGTCAGATAGGTCAGTGAATGCCGAGT"
*A* Criterion met

*Q* Determine whether this sequence has PBM binding z-score no lower than 3: "CTATGTAGGTTAATGGGGTCATTCAGTTTGAAAG"
*A* Criterion met

*Q* Determine whether this sequence has PBM binding z-score no lower than 3: "CGAACTAGGTCACCAGGACAGTGAAGAGGTTGGA"
*A* Criterion met

*Q* Determine whether this sequence has PBM binding z-score no lower than 3: "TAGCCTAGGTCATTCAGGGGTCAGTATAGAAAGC"
*A* Criterion met

*Q* Determine whether this sequence has PBM binding z-score no lower than 3: "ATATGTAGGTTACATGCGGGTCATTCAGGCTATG"
*A* Criterion not met
